Kindly state IC50 for each of the entries shown.
- Test system: PC-3
- ASSAY TEXT: Antiproliferative activity against human PC3 cells after 24 hrs by MTT assay
- Type: functional, cell-based
- EXPERIMENTAL CONDITIONS: PC-3, 24 h
I only need the number, in µM, no unit after it.

stdin: Suppose we examine the compound "Oc1ccccc1/C=N\CCn1cccn1" ; what IC50 value has been reported?
stdout: 522

stdin: Please do the same for "Oc1c(Cl)cc(Cl)cc1/C=N\CCn1cccn1" as well.
stdout: 39

stdin: Please do the same for "Oc1c(I)cc(I)cc1/C=N\CCn1cccn1" as well.
stdout: 32

###

Kindly state EC50 for each of the entries shown.
- Tested on: Artemia salina
- ASSAY TEXT: Toxicity in brine shrimp
- Assay type: functional
- EXPERIMENTAL CONDITIONS: read-out: ED50 (the source's name)
I only need the number, in µM, no unit after it.

stdin: Suppose we examine the molecule CC(C)CC(/N=C1/c2c(O)cccc2Cc2cc(CO)cc(O)c21)C(=O)O (stereo not given) ; what EC50 value has been reported?
stdout: 72.2

stdin: Please do the same for O=C(O)C/N=C1/c2c(O)cccc2C([C@@H]2O[C@H](CO)[C@@H](O)[C@H](O)[C@H]2O)c2cc(CO)cc(O)c21 (stereo not given in full) as well.
stdout: 408

stdin: Please do the same for CCC(C)C(/N=C1/c2c(O)cccc2Cc2cc(CO)cc(O)c21)C(=O)O (stereo not given) as well.
stdout: 246

stdin: Please do the same for CC(O)C(/N=C1/c2c(O)cccc2C([C@@H]2O[C@H](CO)[C@@H](O)[C@H](O)[C@H]2O)c2cc(CO)cc(O)c21)C(=O)O (stereo not given in full) as well.
stdout: 27.6

stdin: Please do the same for O=C(O)C(Cc1ccccc1)/N=C1/c2c(O)cccc2Cc2cc(CO)cc(O)c21 (stereo not given) as well.
stdout: 335

###

- Test system: Artemia salina
- ASSAY TEXT: Toxicity in brine shrimp
- Assay type: functional
- EXPERIMENTAL CONDITIONS: read-out: ED50 (the source's name)
READOUT KIND: log10 EC50 (log10 of the value in µM)
Field: value | Transform: log10 | Quantity: EC50 | Unit: µM

stdin: Suppose we examine the compound CC(C)C(/N=C1/c2c(O)cccc2C([C@@H]2O[C@H](CO)[C@@H](O)[C@H](O)[C@H]2O)c2cc(CO)cc(O)c21)C(=O)O (stereo partly drawn) ; what log10 EC50 value has been reported?
stdout: 1.28

stdin: Please do the same for CC(C)C(/N=C1/c2c(O)cccc2Cc2cc(CO)cc(O)c21)C(=O)O (stereo not drawn) as well.
stdout: 2.16

stdin: Please do the same for CC(/N=C1/c2c(O)cccc2Cc2cc(CO)cc(O)c21)C(=O)O (stereo not drawn) as well.
stdout: 2.53

stdin: Please do the same for Cc1cc(O)c2c(c1)C([C@@H]1O[C@H](CO)[C@@H](O)[C@H](O)[C@H]1O)c1cccc(O)c1/C2=N/C(CS)C(=O)O (stereo partly drawn) as well.
stdout: 1.01

stdin: Please do the same for CC(O)C(/N=C1/c2c(O)cccc2Cc2cc(CO)cc(O)c21)C(=O)O (stereo not drawn) as well.
stdout: 2.53

stdin: Please do the same for CCC(C)C(/N=C1/c2c(O)cccc2C([C@@H]2O[C@H](CO)[C@@H](O)[C@H](O)[C@H]2O)c2cc(CO)cc(O)c21)C(=O)O (stereo partly drawn) as well.
stdout: 1.55

stdin: Please do the same for O=C(O)C(Cc1ccccc1)/N=C1/c2c(O)cccc2C([C@@H]2O[C@H](CO)[C@@H](O)[C@H](O)[C@H]2O)c2cc(CO)cc(O)c21 (stereo partly drawn) as well.
stdout: 2.49

stdin: Please do the same for CC(/N=C1/c2c(O)cccc2C([C@@H]2O[C@H](CO)[C@@H](O)[C@H](O)[C@H]2O)c2cc(CO)cc(O)c21)C(=O)O (stereo partly drawn) as well.
stdout: 2.11
